Exercise: state measured AUC % for each of the binders provided.
Target: T1, human TNFR2 on the cell surface (CHO-TNFR2 cells; human Treg cells) (human, UniProt P20333 23-461)
T1 construct: whole, on cells; The assay field of each row says which cells; also called TNFR2-CHO cell; TNFR2 on Treg cells
T1 sequence (looked up): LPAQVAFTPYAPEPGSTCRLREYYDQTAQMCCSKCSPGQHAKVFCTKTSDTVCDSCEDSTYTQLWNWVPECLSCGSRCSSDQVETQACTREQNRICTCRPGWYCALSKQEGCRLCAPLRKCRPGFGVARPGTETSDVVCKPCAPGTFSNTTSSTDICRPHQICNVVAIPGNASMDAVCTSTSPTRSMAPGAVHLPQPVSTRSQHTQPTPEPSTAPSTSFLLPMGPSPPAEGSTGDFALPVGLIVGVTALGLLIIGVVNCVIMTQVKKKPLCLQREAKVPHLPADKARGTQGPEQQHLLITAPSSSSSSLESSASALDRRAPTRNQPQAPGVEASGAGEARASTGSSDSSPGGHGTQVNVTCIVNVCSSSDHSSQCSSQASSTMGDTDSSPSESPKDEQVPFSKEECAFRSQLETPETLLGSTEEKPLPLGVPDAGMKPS
Test: flow cytometry, blocking of TNFα-biotin on CHO-TNFR2 cells; AUC for 002# / AUC for antibody x 100
Answers are plain numbers, in %.

Illustrative cases are given below, each with its answer.
TNFR2 antibody #001 (antibody, V domains shown, also called antibody #1) VH: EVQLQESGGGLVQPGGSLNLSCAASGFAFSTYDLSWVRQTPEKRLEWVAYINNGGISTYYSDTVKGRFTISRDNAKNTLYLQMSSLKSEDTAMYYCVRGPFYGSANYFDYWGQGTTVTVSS VL: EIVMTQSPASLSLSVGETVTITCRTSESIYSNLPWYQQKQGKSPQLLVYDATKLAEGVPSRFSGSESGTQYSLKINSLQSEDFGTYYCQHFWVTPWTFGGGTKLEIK : 88.3
TNFR2 antibody #226 (antibody, V domains shown) VH: EVQLQESGAELVRPGASVKLSCKASGYSFTNYWMNWVKQRPGQGLEWIGMIHPSDSETRLNQKFKDKATLTVDKSSSTAYMQLSSPTSEDSAVYYCARGEGLGAARSVSMDYWGQGTTVTVSS VL: DIQMTQSPSSLSASLGDRVTISCRASQDISNYLNWYQQKPDGTVKVLIYYTALLHSGVPSRFSGSGSGTDYSLTISNLEQEDIATYFCQQGNTLPWTFGGGTKLEIK : 98.7

Pending binder:
Record TNFR2 antibody #309 (antibody, V domains shown) VH: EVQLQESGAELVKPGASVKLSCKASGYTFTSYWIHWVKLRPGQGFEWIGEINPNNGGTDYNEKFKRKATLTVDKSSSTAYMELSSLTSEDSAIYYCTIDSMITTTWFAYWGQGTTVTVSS VL: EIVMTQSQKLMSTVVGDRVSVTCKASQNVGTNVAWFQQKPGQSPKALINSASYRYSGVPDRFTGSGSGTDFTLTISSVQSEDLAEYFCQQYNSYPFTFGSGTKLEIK , field AUC %: 92.4
